Hey, just so you know, these numbers are from PubChem BioAssay (NCI).

system: IGROV1 ovarian; assay: NCI-60 one-dose screen, 48 h; conditions: 10 µM unless noted
Compounds without any hit were thinned out: in the full panel of roughly 83,000, 20% have a hit. Activity calls are given as the source filed them. The calls were made as follows: active = growth percent below 10; inactive = the rest.
Your reply should match one of these outcome classes. active, inactive

In [3]: df
Out[3]:
                                   molecule  assigned_category
0  CC(/C=C1\SC(=S)N(CCCC(=O)NC(CC(C)C)C(=O)O)C1=O)=C\c1ccccc1 (stereo not given)           inactive
1  O=C(Cn1c(/C=C/c2cccc([N+](=O)[O-])c2)nc2ccccc2c1=O)Nc1ccccc1           inactive

IN: What classification did `O=C(O)c1ccc(-c2ccc(/C=N/NC(=O)c3[nH]c4ccc(Br)cc4c3-c3ccccc3)s2)cc1` end up with in this test?
OUT: inactive

IN: What classification did `O=c1oc2ccc(Br)cc2cc1C1=CSc2nc3sc4c(c3c(=O)n2N=C1)CCCC4` end up with in this test?
OUT: inactive

IN: What classification did `Cn1cc(-c2cc(N)n3nc(-c4cn(C)c5ccccc45)cc3n2)c2cc(Cl)ccc21` end up with in this test?
OUT: active

---

system: ACHN renal; test: NCI-60 one-dose screen, 48 h (100 = growth as untreated, 0 = no growth, -100 = all killed); conditions: 10 µM unless noted
This is part of a sample that, as a whole, favours compounds with a hit. Of some 83,000 tested, about 20% had one in any assay. Active and inactive are the calls of the source. How the source made its calls: active means growth percent below 10; inactive means the rest.
Here the recorded growth is given for each entry.

// solved cases for growth follow
>>> df
                                   compound   value_observed
0  CC(=O)c1cccc(NC(=O)CCC(=O)NS(=O)(=O)c2ccc(C)cc2)c1  105% (inactive)
1  O=C(c1ccc(OCCN2CCOCC2)cc1)C1[C@H](c2ccc(Cl)cc2)[C@@H](c2ccccc2)NC12C(=O)Nc1ccc(Br)cc12 (stereo partly drawn)   5.53% (active)

Attention now shifts to the item below.
IN: What growth value was documented for this compound, `NS(=O)(=O)c1ccc(-n2cc(-c3cccc(NC(=O)c4cc(Cl)cc(Cl)c4)c3)nn2)cc1` ?
OUT: 95.8% (inactive)

---

system: OVCAR-5 ovarian; assay: NCI-60 one-dose screen, 48 h (100 = growth as untreated, 0 = no growth, -100 = all killed); conditions: 10 µM unless noted
About 83,000 compounds went through this panel and 20% of them were active in at least one assay; those are over-represented in the sample as a whole.
Record Satisfied whenever growth is at -80% or higher; record Not satisfied when lower.

                  compound_structure_string  assigned_category
0  COc1ccc2[nH]cc(-c3nnc(N)nc3-c3cn(C)c4ncc(Br)cc34)c2c1          Satisfied
1  O=C(NN1C(=O)/C(=C/C=C/c2ccc([N+](=O)[O-])o2)SC1=S)c1cccc(O)c1      Not satisfied
2  CSc1ccc(C(=O)Nc2ccc3nnn(/C(C#N)=C/c4ccccn4)c3c2)cc1          Satisfied

IN: Does the reported growth for `CCCCCCCCOc1cccc(S(=O)(=O)Nc2ccc(C)cc2C(=O)O)c1` fall at or above the -80% mark?
OUT: Satisfied

IN: Does the reported growth for `COc1ccc(-c2nc3cc(C)ccc3n2CC(=O)N=Nc2c(O)[nH]c3ccc(Br)cc23)cc1` fall at or above the -80% mark?
OUT: Satisfied

---

test system: OVCAR-4 ovarian; test: NCI-60 one-dose screen, 48 h (100 = growth as untreated, 0 = no growth, -100 = all killed); conditions: 10 µM unless noted
The panel holds about 83,000 compounds, 20% with a hit somewhere; the sample as a whole holds those more often.
Record 1 whenever growth is at 60% or higher; record 0 when lower.

                                   compound      measured_on  assigned_category
0  Brc1ccc(-c2n(Cc3ccc4ccccc4c3)c(-c3ccccc3)c(-c3ccccc3)[n+]2Cc2ccc3ccccc3c2)cc1  OVCAR-4 ovarian                  0
1  CN(C)c1ccnc(CNCCSC2(c3ccc(C(F)(F)F)cc3)c3ccccc3C=Cc3ccccc32)c1  OVCAR-4 ovarian                  0
2  NS(=O)(=O)c1ccc(N=Nc2c(O)n(CC(=O)Nc3ccccc3)c3ccccc23)cc1  OVCAR-4 ovarian                  0

IN: Does the reported growth for COCOc1cc2c(=O)c(C)c(C(=O)N[C@@H](Cc3ccccc3)C(O)C(=O)NCc3ccccc3)oc2cc1OC (stereo partly specified) fall at or above the 60% mark?
OUT: 0

IN: Does the reported growth for `CC(=O)Oc1ccccc1C(=O)[Se]CC(=O)Nc1cccc(C(F)(F)F)c1` fall at or above the 60% mark?
OUT: 0

IN: Does the reported growth for `O=C1NC(=O)/C(=C/c2ccccc2OCc2cc3ccccc3nc2Cl)S1` fall at or above the 60% mark?
OUT: 1

IN: Does the reported growth for `O=C(Nc1ccc(C(F)(F)F)cc1)Nc1ccc2oc(=O)ccc2c1` fall at or above the 60% mark?
OUT: 0

IN: Does the reported growth for `COc1ccc(/C=C/c2nc3ccccc3n3c(-c4ccc(Cl)cc4)nnc23)cc1` fall at or above the 60% mark?
OUT: 1

IN: Does the reported growth for `Clc1ccc(-c2ccc(OCCCN3CCN(c4ccncc4)CC3)cc2)cc1` fall at or above the 60% mark?
OUT: 1

IN: Does the reported growth for `Cc1ccc(S(=O)(=O)c2nc(S(=O)(=O)c3ccc(C)cc3)c(N3CCN(C)CC3)s2)cc1` fall at or above the 60% mark?
OUT: 1

IN: Does the reported growth for `O=c1[nH]c2ccc(Cl)cc2cc1CSc1nccc(-c2ccc(Cl)cc2)n1` fall at or above the 60% mark?
OUT: 0

---

test system: RPMI-8226 leukemia; test: NCI-60 one-dose screen, 48 h (100 = growth as untreated, 0 = no growth, -100 = all killed); details: 10 µM unless noted
About 83,000 compounds went through this panel and 20% of them were active in at least one assay; those are over-represented in the sample as a whole.
observation.type: growth (%)
Numbers only; they are read as %.

// solved cases for growth follow
>>> df
                  compound_structure_string  observation_type  measurement_units  value_observed
0   O=C(CSc1nc2ccccc2c(=O)[nH]1)NCCN1CCCCC1            growth                  %             100
1  COc1cc(/C=C/C(=O)c2ccc(C)cc2)ccc1Oc1nc(Nc2ccc(F)cc2)nc(N(C)C)n1            growth                  %           -1.89
2  O=C(CN1C(=O)/C(=C/c2ccccc2F)SC1=S)N1CCOCC1            growth                  %            52.8
3  COc1ccc2c(c1)c(-c1cc3nc(-c4cn(C)c5ncc(Br)cc45)cc(N)n3n1)cn2C            growth                  %           -0.77

Attention now shifts to the item below.
IN: What growth value was documented for this compound, `Cc1ccc(C(=O)NN2C(=O)/C(=C/C=C/c3ccc([N+](=O)[O-])o3)SC2=S)cc1` ?
OUT: -1.56

---

test system: OVCAR-5 ovarian; experiment: NCI-60 one-dose screen, 48 h (100 = growth as untreated, 0 = no growth, -100 = all killed); conditions: 10 µM unless noted
The panel holds about 83,000 compounds, 20% with a hit somewhere; the sample as a whole holds those more often.
observation.type: growth (%)
Numbers only; they are read as %.

// solved cases for growth follow
molecule	value.observed
COc1ccc(-c2nc(SCC(C)C)nc(NCCc3c[nH]c4ccccc34)c2C#N)cc1	81.5
C[C@H]1CN(C(=O)c2ccc3c(NNC(=O)c4ccncn4)nc4cc(F)c(F)cc4n23)CCN1	50.4
CCCCSc1nc(Nc2ccc(S(N)(=O)=O)cc2)c(C#N)c(-c2ccc(Cl)cc2)n1	51.5
CC(=O)Oc1ccccc1C(=O)[Se]C(=NC1CCCCC1)NC1CCCCC1	-89.6

IN: GET /values?readout=growth&system=OVCAR-5 ovarian&item= CN(C)c1nc(NCCNS(=O)(=O)c2ccc(C3=Nc4c(N)nc(N)nc4NC(c4ccc(F)cc4)C3)cc2)nc(Nc2ccc(F)cc2)n1 (configuration not stated)
OUT: 78.2

IN: GET /values?readout=growth&system=OVCAR-5 ovarian&item= `O=C(COc1ccc(NC(=O)Nc2ccccc2)cc1)N=Nc1c(O)[nH]c2ccc([N+](=O)[O-])cc12`
OUT: 61.2

IN: GET /values?readout=growth&system=OVCAR-5 ovarian&item= `Cc1ncsc1-c1ccc(CNC(=O)[C@@H]2C[C@@H](O)CN2C(=O)[C@@H](NC(=O)C2(F)CC2)C(C)(C)C)c(OCCOCCOCCOCCOc2nc(Nc3cc(S(C)(=O)=O)ccc3N[C@@H](c3cccc4c3OC(F)(F)O4)c3ncccc3Cl)nc(N3CCNCC3)n2)c1`
OUT: 99
